test: soluble on expression in E. coli; label from the status in PepcDB or PDB records
QUANTITY KIND: soluble on expression in E. coli

Some entries whose results are on file:
Qu. Which soluble on expression in E. coli value is on record for `MTITRQDAWTQDEDLLLAEVVLRHIREGGTQLSAFEEVGRALTRTAAACGFRWNSYVRKQYQSGIELAKKQRKELRKQIGVHSVNMPNSMKQTASASSEGKRDLSIQDVIQFLEQFKETPSAQEFQLEREKLKEQIQSLQKELEDLRSENQTLRNQLEMTEEDYKALIDIMDRARKMVVSKEDGRMKKAAQETLEHHHHHH` ?
Ans. not soluble

Qu. Which soluble on expression in E. coli value is on record for `MGSDKIHHHHHHMHYRQYGRTGRLISRFSLGLMRCLDSAAQLEAVLDAAWRLGINHFETAQSYGPSEAYLAQALHSLQLPRDQVIITTKILPDRDPQQMVEAVLRSRDRLGIDSIDCLALHGLNQPEHLQQAIAALPALQTLQAEGVFQHLGFSSHGDRELILEAIATDAFDFVSLHYYLLFQRHAPVIEAAAAKNLGIFIISPVDKGGLLHQPSAQLIEDCQPFSPLALNYRFLLSDRRITTLSFGAAKAEELAVLQDFVDADQPLSLEEAEAIARLEQVRQQRLGRDYCQQCYACLPCPEAINIPEVLRLRNLAIAHDMQAYGRYRYRMFENAGHWFPGQRGSRCTDCGDCLPRCPHHLPIADLVRDADQRLAGAPRRRLWGD` ?
Ans. not soluble

Qu. Which soluble on expression in E. coli value is on record for `GPGSMNCFGVRNWWRNNLPELQLLNPFCSFTIQELSFGEPHMYINYTPTDQRMIRLAGATEDECEDIMEACITYGMNHAIIERPRTDDGGDLINQPAITSFGYTESFMSKLEVSPPADIGQRTPEGVDDPGQKPRVYPRNVGFKIMP` ?
Ans. not soluble

Qu. Which soluble on expression in E. coli value is on record for `MSLNGQNTISDIGDATEDQIKDVIQIMNDNIDKFLERQERVSLLVDKTSQLNSSSNKFRRKAVNIKEIMWWQKVKNITLLTFTIILEGHHHHHH` ?
Ans. not soluble

Qu. Which soluble on expression in E. coli value is on record for `AESSADKFKRQHMDTEGPSKSSPTYCNQMMKRQGMTKGSCKPVNTFVHEPLEDVQAICSQGQVTCKNGRNNCHKSSSTLRITDCRLKGSSKYPNCDYTTTDSQKHIIIACDGNPYVPVHFDASV` ?
Ans. soluble

Qu. Which soluble on expression in E. coli value is on record for `MGNTATEFDGPYVITPISGQSTAYWICDNRLKTTSIEKLQVNRPEHCGDLPETKLSSEIKQIMPDTYLGIKKVVALSDVHGQYDVLLTLLKKQKIIDSDGNWAFGEGHMVMTGDIFDRGHQVNEVLWFMYQLDQQARDAGGMVHLLMGNHEQMVLGGDLRYVHQRYDIATTLINRPYNKLYSADTEIGQWLRSKNTIIKINDVLYMHGGISSEWISRELTLDKANALYRANVDASKKSLKADDLLNFLFFGNGPTWYRGYFSETFTEAELDTILQHFNVNHIVVGHTSQERVLGLFHNKVIAVDSSIKVGKSGELLLLENNRLIRGLYDGTRETLQENSLNQ` ?
Ans. soluble

Qu. Which soluble on expression in E. coli value is on record for `MGSDKIHHHHHHMKIDDIDAFVAVIRCQSISHAAESLDLTQPAITRRVQNFEQALGVELFDRNTKPLKPTPMGIQVYQKCLAILREMDSLRELVASDTPPSGLLRLGVPQTIGDVVLLDALKQLRGEFPDLRAQVSTGWGSHLIGKIENGELDAAAALFPAGKIFPDNIVGQSIGKMELVVVCAKGSVPKKPGKLADCYEQGWVLNPDGCGFRAGLQRTLTDQGLSMKVNLETFGTELQLGLVADGMGLGLVPRPLLERSAHREQLVVLPLKDFKPVMDLWLFYPRFLGNLQAPVEAFGALVARSLKPLSAAA` ?
Ans. not soluble

Qu. Which soluble on expression in E. coli value is on record for `MGQMFNPPHPGETLREDVLPAFNLTVTEAANQLGVSRVTLSRVLNGTSAISPEMALRIEEWLGVENGGRADLWLGMQTSYDLWKARERVHQQPLSVRSVKHKSTEMALR` ?
Ans. not soluble

Note: attention shifts to another entry.
Qu. Which soluble on expression in E. coli value is on record for `GLLDLKSMIEKVTGKNALTNYGFYGCYCGWGGRGTPKDGTDWCCWAHDHCYGRLEEKGCNIRTQSYKYRFAWGVVTCEPGPFCHVNLCACDRKLVYCLKRNLRSYNPQYQYFPNILCS` ?
Ans. soluble

====

experiment: soluble on expression in E. coli; label from the status in PepcDB or PDB records
QUANTITY KIND: soluble on expression in E. coli

Qu. Which soluble on expression in E. coli value is on record for `MGSDKIHHHHHHMEIGQRFLVQLEETGQYFVNYQDGILIELAFDATVGKQSPAFSDLEHTAAYLEEHLRSHQTQALLLASKIHAYDASPVERITQMISIHSFFSTHRLVHPLNAYSTALLISRLEATDPQLQRTVELYRLAKKSHRFIVSPLLVSFLFLNALRRGEIATIHARIEATYDILKKRFGRSQQTYVTALLLALLPEDDQATYIAQVVQSRNLYRKHGIPLSFHGLLALLGDPRMHQTALEGLADQFRNTPHFKYRKDLVFLTAVRLYLADHPTLHQLFAPFSPSTLDDTSNLLPVYLFPVDLTDTSHATDGGMTDGGFDGGDGGGGGGD` ?
Ans. not soluble

Qu. Which soluble on expression in E. coli value is on record for `MGSDKIHHHHHHMTTYRTVSIDGLDIFYREAGSRNNPTILLLHGFPTSSHMFRNLIPALADKFHLVAPDYPGYGNSSMPTVNEFDYTFDNLAEIVEKFIAAIALKKYSLYVMDYGAPIGYRIAAKYPERVQSLIVQNGNAYEEGLREFWEPIKAYWQERSPENAEKLKYLVTLEATKWQYTNGVRNLEAISPDTWTMDQHFLDRPGNDEIQLALLYSYGTNPLLYPQWQEYFRNYQPPTLIVWGKNDYIFPADGAYPYQRDLKDVEFHLLDTGHFALEEDGDAIANYIDQFLTSRLQSIPV` ?
Ans. not soluble

====

assay: soluble on expression in E. coli; label from the status in PepcDB or PDB records
QUANTITY KIND: soluble on expression in E. coli

Qu. Which soluble on expression in E. coli value is on record for `MGSDKIHHHHHHMGDSMSLDWDKLRIFHAAAEAGSFTHAADKLHLSQSAISRQVSSLEQDVGIKLFHRHARGLILTEQGEMLYRTAHDVLMKLESVKAQLSETTDKPSGKLRITTTVGLGQGWLTDKIQEFMSLYPEIQVQLILDNEELDVNMRHADCAIRLRQPQQSDLIQRKLFTVHMHVYAAPSYINKYGEPQSLDDLDNHRIITFGEPAPNYLLDVNWLEIAGRDSDNPRISHLQINSQTSIKRACLLGIGIAMLPDYIVGRDPGLIQLPISADIPSFDTYFCYPDELKNAAKLKVFRDYIVAKARNWNF` ?
Ans. not soluble

Qu. Which soluble on expression in E. coli value is on record for `PEIAEVVIGVGENAVKIGGEEVLHRHELTFFNPTGFFYDVWDTMDDKALEERCDRVVSYKKFYVGNFLTLDGFAVRCTSGDPKRYREVVKKVASYGKPLILVALDSECMKAALEEVADQRPLMYAATEGNWKEFLKLALEYKVPVTLRAKDLDLLKSMAVTFKQAGVKDIVLDPVTEPLGEGLKGTFERVIQLRRTAIAGQDKDVAYPIMITPIAAWLIEGDDVTKSYWEAVIASIFIVKYGDVMIFRSIDQHVVMPTITLRFNIYTDPRTPVQVEPGLRAINDPGPDDPVFITTNFALTYYTVESDLTSGGIKGWLLVLNTEGLGVEVSVAGGQFTASKVKELIEETKIEEKVNHRYLVIPGLAARLQGAIEDETGWKVLVGPMDSGRIKGWLEKNWP` ?
Ans. not soluble

====

experiment: soluble on expression in E. coli; label from the status in PepcDB or PDB records
QUANTITY KIND: soluble on expression in E. coli

Qu. Which soluble on expression in E. coli value is on record for `QQQHKVLKTVKVTEQLKHCSEILKEMLAKKHLPYAWPFYNPVDADALGLHNYYDVVKNPMDLGTIKGKMDNQEYKDAYEFAADVRLMFMNCYKYNPPDHEVVAMARTLQDVFELHFAKIPDEPIES` ?
Ans. soluble

Qu. Which soluble on expression in E. coli value is on record for `MAHHHHHHMGTLEAQTQGPGSMNAGLDQVDPIWHSIRAEAEEATRNDPVLGAFLYATILNQPSLEEAVMHRIAERLGHPDVSADILRQTFDTMLEANPEWSHVLRVDIQAVYDRDPAYSRFMDPVLYLKGFHAIQTHRLAHWLYKQGRKDFAYYLQSRSSSIFQTDIHPAARLGSGLFLDHATGLVVGETAVVEDNVSILHGVTLGGTGKSSGDRHPKIRQGVLIGAGAKILGNIQVGQCSKIAAGSVVLKSVPHNVTVAGVPARIIGETGCTEPSRVMDQMLGDGI` ?
Ans. soluble
